Data origin, for the record: ChEMBL document CHEMBL3593209

# key: entry, value: pKi
- Assay System: Carbonic anhydrase 12 (Homo sapiens)
- Sequence (O43570 whole entry): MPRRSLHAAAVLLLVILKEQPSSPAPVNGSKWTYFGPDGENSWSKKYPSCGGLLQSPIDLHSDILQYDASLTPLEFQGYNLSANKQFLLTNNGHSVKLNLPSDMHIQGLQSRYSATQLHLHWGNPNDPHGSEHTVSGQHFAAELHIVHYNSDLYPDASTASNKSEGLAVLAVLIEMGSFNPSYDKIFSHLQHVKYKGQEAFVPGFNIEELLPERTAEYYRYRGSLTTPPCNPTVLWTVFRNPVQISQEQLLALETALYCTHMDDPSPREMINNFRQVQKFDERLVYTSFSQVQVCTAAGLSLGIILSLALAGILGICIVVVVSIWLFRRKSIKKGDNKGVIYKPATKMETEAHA
- Assay: Inhibition of human recombinant carbonic anhydrase 12 expressed in Escherichia coli preincubated for 15 mins by stopped flow CO2 hydration method
pKi: −log10 of the molar value.

Recorded pKi, per entry:
>  <Molecular String>
Cc1ccc(-c2cc(C(=O)O)[nH]n2)cc1C

>  <pKi>
< 4.30

$$$$
>  <Molecular String>
O=C(O)c1cc(-c2cccc(Br)c2)[nH]n1

>  <pKi>
< 4.30

$$$$
>  <Molecular String>
COc1cc(C)c(-c2cc(C(=O)O)n[nH]2)cc1C

>  <pKi>
< 4.30

$$$$
>  <Molecular String>
CC(C)c1ccc(-c2cc(C(=O)O)n[nH]2)c(C(C)C)c1

>  <pKi>
< 4.30

$$$$

Challenge: Suppose we examine the compound CC(C)c1ccc(-c2cc(C(=O)O)[nH]n2)cc1 ; what pKi value has been reported?
Response given: < 4.30

Challenge: Suppose we examine the compound O=C(O)c1cc(-c2ccc(F)cc2)n[nH]1 ; what pKi value has been reported?
Response given: 4.41

Challenge: Suppose we examine the compound Cc1ccc(-c2cc(C(=O)O)[nH]n2)c(C)c1 ; what pKi value has been reported?
Response given: < 4.30

Challenge: Suppose we examine the compound Cc1ccc(-c2cc(C(=O)O)[nH]n2)cc1 ; what pKi value has been reported?
Response given: < 4.30

Challenge: Suppose we examine the compound COc1ccc(-c2cc(C(=O)O)n[nH]2)cc1 ; what pKi value has been reported?
Response given: < 4.30

Challenge: Suppose we examine the compound CCc1ccc(-c2cc(C(=O)O)[nH]n2)cc1 ; what pKi value has been reported?
Response given: 5.35

Challenge: Suppose we examine the compound Cc1cc(C)c(-c2cc(C(=O)O)n[nH]2)cc1C ; what pKi value has been reported?
Response given: < 4.30

Challenge: Suppose we examine the compound O=C(O)c1cc(-c2ccc(O)cc2)n[nH]1 ; what pKi value has been reported?
Response given: 4.39

Challenge: Suppose we examine the compound O=C(O)c1cc(-c2ccc(Cl)cc2)n[nH]1 ; what pKi value has been reported?
Response given: 4.30

Challenge: Suppose we examine the compound Cc1cc(C)c(C)c(-c2cc(C(=O)O)n[nH]2)c1C ; what pKi value has been reported?
Response given: < 4.30

Challenge: Suppose we examine the compound CCc1cc(CC)c(-c2cc(C(=O)O)n[nH]2)c(CC)c1 ; what pKi value has been reported?
Response given: < 4.30

----------
- Assay System: Carbonic anhydrase 9 (Homo sapiens)
pKi: −log10 of the molar value.
Measurement Kind: pKi

>  <Molecular String>
COc1ccc(-c2cc(C(=O)O)n[nH]2)cc1

>  <Assay System>
Carbonic anhydrase 9 (Homo sapiens)

>  <Measurement Kind>
pKi

>  <Recorded Number>
4.31

$$$$
>  <Molecular String>
Cc1ccc(-c2cc(C(=O)O)[nH]n2)c(C)c1

>  <Assay System>
Carbonic anhydrase 9 (Homo sapiens)

>  <Measurement Kind>
pKi

>  <Recorded Number>
4.35

$$$$

----------
The reader will find Ki measurements below, all made with Carbonic anhydrase 9 (Homo sapiens).
Measurement Kind: Ki (µM)

>  <Molecular String>
CCc1ccc(-c2cc(C(=O)O)[nH]n2)cc1

>  <Ki, µM>
42

$$$$
>  <Molecular String>
CC(C)(C)c1ccc(-c2cc(C(=O)O)n[nH]2)cc1

>  <Ki, µM>
5

$$$$

a: Cc1cc(C)c(C)c(-c2cc(C(=O)O)n[nH]2)c1C
b: CC(C)c1cc(C(C)C)c(-c2cc(C(=O)O)n[nH]2)c(C(C)C)c1
Challenge: Please tell me which of the two, a or b , has the higher reported Ki value. Give the chosen item's label as your response.
Response given: b
(b: 39 µM, a: 5 µM)
